System: OVCAR-8
Assay: NCI60 five-dose screen, Ovarian Cancer
Format: cell-based
Conditions: Homo sapiens; OVCAR-8, Ovarian Cancer; five-dose screen; read-out: GI50
value type: GI50 (µM)
Expressed in µM, but write only the number.

-- ask Kindly indicate its recorded GI50. Item: CCC12C=CCN3CCC4(c5cc(NC(=O)CN6CCN(C(c7ccc(F)cc7)c7ccc(F)cc7)CC6)c(OC)cc5N(C)C4C(O)(C(=O)OC)C1OC(C)=O)C32 (stereo not drawn) [Compound 20]
-- reply 7.59

-- ask Kindly indicate its recorded GI50. Item: CC[C@]12C=CCN3CC[C@@]4(c5ccc(OC)cc5N(C)[C@H]4[C@@](O)(C(=O)OC)[C@@H]1OC(=O)CCC(=O)N1CCN(Cc4ccc(C(F)(F)F)cc4)CC1)[C@@H]32 [Compound 29]
-- reply 12

New cases:
-- ask Kindly indicate its recorded GI50. Item: CC[C@]12C=CCN3CC[C@@]4(c5ccc(OC)cc5N(C)[C@H]4[C@@](O)(C(=O)OC)[C@@H]1OC(=O)CCCN1CCN(Cc4ccc(C(F)(F)F)cc4)CC1)[C@@H]32 [Compound 23]
-- reply 1.82

---

System: HOP-92
Assay: NCI60 one-dose screen (10 μM), Non-small Cell Lung Cancer
Format: cell-based
Settings: Homo sapiens; 10 μM; HOP-92, Non-small Cell Lung Cancer; read-out: Growth percent rate
Recorded activity at 10 µM by entry
Expressed in %, but write only the number.

-- ask Kindly indicate its recorded activity at 10 µM. Item: CCC12C=CCN3CCC4(c5cc(NC(=O)CCl)c(OC)cc5N(C)C4C(O)(C(=O)OC)C1OC(C)=O)C32 (centres unmarked)
-- reply 34.3

-- ask Kindly indicate its recorded activity at 10 µM. Item: CCC12C=CCN3CCC4(c5ccc(OC)cc5N(C)C4C(O)(C(=O)OC)C1OC(=O)CCC(=O)O)C32 (centres unmarked)
-- reply 98.8

-- ask Kindly indicate its recorded activity at 10 µM. Item: CC[C@]12C=CCN3CC[C@@]4(c5ccc(OC)cc5N(C)[C@H]4[C@@](O)(C(=O)OC)[C@@H]1OC(=O)CCC(=O)N1CCN(Cc4ccc(F)cc4)CC1)[C@@H]32
-- reply 66.4

-- ask Kindly indicate its recorded activity at 10 µM. Item: CCC12C=CCN3CCC4(c5ccc(OC)cc5N(C)C4C(O)(C(=O)OC)C1OC(=O)CCCN1CCN(C)CC1)C32 (centres unmarked)
-- reply 80.9

New cases:
-- ask Kindly indicate its recorded activity at 10 µM. Item: CC[C@]12C=CCN3CC[C@@]4(c5ccc(OC)cc5N(C)[C@H]4[C@@](O)(C(=O)OC)[C@@H]1OC(=O)CCCN1CCN(Cc4ccc(C(F)(F)F)cc4)CC1)[C@@H]32
-- reply -70.7

-- ask Kindly indicate its recorded activity at 10 µM. Item: CC[C@]12C=CCN3CC[C@@]4(c5ccc(OC)cc5N(C)[C@H]4[C@@](O)(C(=O)OC)[C@@H]1OC(=O)CCCN1CCN(c4ccc(C(F)(F)F)cc4)CC1)[C@@H]32
-- reply -30.9

-- ask Kindly indicate its recorded activity at 10 µM. Item: CC[C@]12C=CCN3CC[C@@]4(c5ccc(OC)cc5N(C)[C@H]4[C@@](O)(C(=O)OC)[C@@H]1OC(=O)CCC(=O)N1CCN(Cc4ccc(C(F)(F)F)cc4)CC1)[C@@H]32
-- reply -22.6

-- ask Kindly indicate its recorded activity at 10 µM. Item: CC[C@]12C=CCN3CC[C@@]4(c5ccc(OC)cc5N(C)[C@H]4[C@@](O)(C(=O)OC)[C@@H]1OC(=O)CCC(=O)N1CCN(C(c4ccc(F)cc4)c4ccc(F)cc4)CC1)[C@@H]32
-- reply -44.9

Data provenance: paper PMC11277489
